The compounds listed here are annotated with their Ratio IC50.
- Run Description: Selectivity ratio of IC50 for electric eel AChE to IC50 for equine serum BCHE

{"Compound": "CN(C)CCCC1(c2ccc(F)cc2)OCc2cc(C(=O)NNC(=O)c3ccccc3Br)ccc21 (stereo not given)", "Ratio IC50": 3.7}
{"Compound": "Cc1cccc(C(=O)NNC(=O)c2ccc3c(c2)COC3(CCCN(C)C)c2ccc(F)cc2)c1 (stereo not given)", "Ratio IC50": 1.32}
{"Compound": "CN(C)CCCC1(c2ccc(F)cc2)OCc2cc(C(=O)NNC(=O)c3cccc(O)c3)ccc21 (stereo not given)", "Ratio IC50": 1.52}
{"Compound": "CN(C)CCCC1(c2ccc(F)cc2)OCc2cc(C(=O)NNC(=O)c3ccccc3I)ccc21 (stereo not given)", "Ratio IC50": 1.87}
{"Compound": "CN(C)CCCC1(c2ccc(F)cc2)OCc2cc(C(=O)NNC(=O)c3ccc(I)cc3)ccc21 (stereo not given)", "Ratio IC50": 35.7}

* * *

- Run Description: Selectivity ratio of IC50 for electric eel AChE to IC50 for equine serum BCHE
Binary call on Ratio IC50 with cut-off 2: strictly below means rule met, and equality or higher means rule not met.

{"Compound": "CN(C)CCCC1(c2ccc(F)cc2)OCc2cc(C(=O)NNC(=O)c3ccc(N)cc3)ccc21 (stereo not given)", "Class": "rule not met"}
{"Compound": "CN(C)CCCC1(c2ccc(F)cc2)OCc2cc(C(=O)NNC(=O)c3cccc(I)c3)ccc21 (stereo not given)", "Class": "rule met"}
{"Compound": "CN(C)CCCC1(c2ccc(F)cc2)OCc2cc(C(=O)NNC(=O)c3ccccc3O)ccc21 (stereo not given)", "Class": "rule not met"}
{"Compound": "CN(C)CCCC1(c2ccc(F)cc2)OCc2cc(C(=O)NNC(=O)c3ccc([N+](=O)[O-])cc3)ccc21 (stereo not given)", "Class": "rule met"}
{"Compound": "CN(C)CCCC1(c2ccc(F)cc2)OCc2cc(C(=O)NNC(=O)c3ccc(Cl)cc3)ccc21 (stereo not given)", "Class": "rule met"}

* * *

A short record of IC50 observed with Acetylcholinesterase (Electrophorus electricus, UniProt O42275) follows.
Sequence (O42275 whole entry): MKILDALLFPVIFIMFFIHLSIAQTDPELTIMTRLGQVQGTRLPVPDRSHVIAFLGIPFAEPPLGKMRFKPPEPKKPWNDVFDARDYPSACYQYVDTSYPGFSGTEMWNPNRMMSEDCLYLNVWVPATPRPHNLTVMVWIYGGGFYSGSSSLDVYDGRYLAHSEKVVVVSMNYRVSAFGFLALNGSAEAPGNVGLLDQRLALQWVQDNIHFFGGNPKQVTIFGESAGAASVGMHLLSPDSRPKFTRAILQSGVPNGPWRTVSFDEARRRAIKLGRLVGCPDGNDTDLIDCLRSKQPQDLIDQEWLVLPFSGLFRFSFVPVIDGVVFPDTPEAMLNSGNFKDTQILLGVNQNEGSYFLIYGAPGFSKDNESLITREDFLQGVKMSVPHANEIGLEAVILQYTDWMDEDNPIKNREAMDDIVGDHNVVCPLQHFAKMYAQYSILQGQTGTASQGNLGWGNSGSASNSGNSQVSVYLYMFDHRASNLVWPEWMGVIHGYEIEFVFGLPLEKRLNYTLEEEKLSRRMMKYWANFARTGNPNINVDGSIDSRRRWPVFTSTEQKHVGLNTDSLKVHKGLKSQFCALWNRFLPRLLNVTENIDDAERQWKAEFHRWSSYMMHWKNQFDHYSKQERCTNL

{"Compound": "CN(C)CCCC1(c2ccc(F)cc2)OCc2cc(C(=O)NNC(=O)c3cccc(O)c3)ccc21 (configuration not stated)", "IC50 (µM)": 197}
{"Compound": "CN(C)CCCC1(c2ccc(F)cc2)OCc2cc(C(=O)NNC(=O)c3ccc(Br)cc3)ccc21 (configuration not stated)", "IC50 (µM)": 118}
{"Compound": "CN(C)CCCC1(c2ccc(F)cc2)OCc2cc(C(=O)NNC(=O)c3ccccc3I)ccc21 (configuration not stated)", "IC50 (µM)": 146}
{"Compound": "CN(C)CCCC1(c2ccc(F)cc2)OCc2cc(C(=O)NNC(=O)c3cccc([N+](=O)[O-])c3)ccc21 (configuration not stated)", "IC50 (µM)": 137}
{"Compound": "CN(C)CCCC1(c2ccc(F)cc2)OCc2cc(C(=O)NNC(=O)c3ccccc3Cl)ccc21 (configuration not stated)", "IC50 (µM)": 116}
{"Compound": "CN(C)CCCC1(c2ccc(F)cc2)OCc2cc(C(=O)NNC(=O)c3ccc(F)cc3)ccc21 (configuration not stated)", "IC50 (µM)": 112}
{"Compound": "CN(C)CCCC1(c2ccc(F)cc2)OCc2cc(C(=O)NNC(=O)c3ccccc3O)ccc21 (configuration not stated)", "IC50 (µM)": 296}
{"Compound": "CN(C)CCCC1(c2ccc(F)cc2)OCc2cc(C(=O)NNC(=O)c3ccc(Cl)cc3)ccc21 (configuration not stated)", "IC50 (µM)": 6.71}
{"Compound": "CN(C)CCCC1(c2ccc(F)cc2)OCc2cc(C(=O)NNC(=O)c3ccc(O)cc3)ccc21 (configuration not stated)", "IC50 (µM)": 117}
{"Compound": "CN(C)CCCC1(c2ccc(F)cc2)OCc2cc(C(=O)NNC(=O)c3ccccc3)ccc21 (configuration not stated)", "IC50 (µM)": 268}
{"Compound": "Cc1ccccc1C(=O)NNC(=O)c1ccc2c(c1)COC2(CCCN(C)C)c1ccc(F)cc1 (configuration not stated)", "IC50 (µM)": 115}
{"Compound": "CN(C)CCCC1(c2ccc(F)cc2)OCc2cc(C(=O)NNC(=O)c3ccccc3F)ccc21 (configuration not stated)", "IC50 (µM)": 111}
{"Compound": "COc1ccccc1C(=O)NNC(=O)c1ccc2c(c1)COC2(CCCN(C)C)c1ccc(F)cc1 (configuration not stated)", "IC50 (µM)": 45.8}
{"Compound": "COc1ccc(C(=O)NNC(=O)c2ccc3c(c2)COC3(CCCN(C)C)c2ccc(F)cc2)cc1 (configuration not stated)", "IC50 (µM)": 124}
{"Compound": "CN(C)CCCC1(c2ccc(F)cc2)OCc2cc(C(=O)NNC(=O)c3cccc(Br)c3)ccc21 (configuration not stated)", "IC50 (µM)": 115}
{"Compound": "Cc1cccc(C(=O)NNC(=O)c2ccc3c(c2)COC3(CCCN(C)C)c2ccc(F)cc2)c1 (configuration not stated)", "IC50 (µM)": 117}
{"Compound": "COc1cc(C(=O)NNC(=O)c2ccc3c(c2)COC3(CCCN(C)C)c2ccc(F)cc2)ccc1O (configuration not stated)", "IC50 (µM)": 112}
{"Compound": "CN(C)CCCC1(c2ccc(F)cc2)OCc2cc(C(=O)NNC(=O)c3cccc(F)c3)ccc21 (configuration not stated)", "IC50 (µM)": 141}
{"Compound": "CN(C)CCCC1(c2ccc(F)cc2)OCc2cc(C(=O)NNC(=O)c3ccc(I)cc3)ccc21 (configuration not stated)", "IC50 (µM)": 210}
{"Compound": "Cc1ccc(C(=O)NNC(=O)c2ccc3c(c2)COC3(CCCN(C)C)c2ccc(F)cc2)cc1 (configuration not stated)", "IC50 (µM)": 268}
{"Compound": "CN(C)CCCC1(c2ccc(F)cc2)OCc2cc(C(=O)NNC(=O)c3ccc(N)cc3)ccc21 (configuration not stated)", "IC50 (µM)": 129}
{"Compound": "CN(C)CCCC1(c2ccc(F)cc2)OCc2cc(C(=O)NNC(=O)c3ccccc3Br)ccc21 (configuration not stated)", "IC50 (µM)": 7.81}
{"Compound": "CN(C)CCCC1(c2ccc(F)cc2)OCc2cc(C(=O)NNC(=O)c3cccc(Cl)c3)ccc21 (configuration not stated)", "IC50 (µM)": 1.8}
{"Compound": "CN(C)CCCC1(c2ccc(F)cc2)OCc2cc(C(=O)NNC(=O)c3ccccc3[N+](=O)[O-])ccc21 (configuration not stated)", "IC50 (µM)": 256}
{"Compound": "CN(C)CCCC1(c2ccc(F)cc2)OCc2cc(C(=O)NNC(=O)c3ccc([N+](=O)[O-])cc3)ccc21 (configuration not stated)", "IC50 (µM)": 125}
{"Compound": "CN(C)CCCC1(c2ccc(F)cc2)OCc2cc(C(=O)NNC(=O)c3ccccc3N)ccc21 (configuration not stated)", "IC50 (µM)": 118}
{"Compound": "CN(C)CCCC1(c2ccc(F)cc2)OCc2cc(C(=O)NNC(=O)c3cccc(I)c3)ccc21 (configuration not stated)", "IC50 (µM)": 127}

* * *

- Tested On: Acetylcholinesterase (Electrophorus electricus) (UniProt O42275)
- Sequence (O42275 24-633 limits assumed): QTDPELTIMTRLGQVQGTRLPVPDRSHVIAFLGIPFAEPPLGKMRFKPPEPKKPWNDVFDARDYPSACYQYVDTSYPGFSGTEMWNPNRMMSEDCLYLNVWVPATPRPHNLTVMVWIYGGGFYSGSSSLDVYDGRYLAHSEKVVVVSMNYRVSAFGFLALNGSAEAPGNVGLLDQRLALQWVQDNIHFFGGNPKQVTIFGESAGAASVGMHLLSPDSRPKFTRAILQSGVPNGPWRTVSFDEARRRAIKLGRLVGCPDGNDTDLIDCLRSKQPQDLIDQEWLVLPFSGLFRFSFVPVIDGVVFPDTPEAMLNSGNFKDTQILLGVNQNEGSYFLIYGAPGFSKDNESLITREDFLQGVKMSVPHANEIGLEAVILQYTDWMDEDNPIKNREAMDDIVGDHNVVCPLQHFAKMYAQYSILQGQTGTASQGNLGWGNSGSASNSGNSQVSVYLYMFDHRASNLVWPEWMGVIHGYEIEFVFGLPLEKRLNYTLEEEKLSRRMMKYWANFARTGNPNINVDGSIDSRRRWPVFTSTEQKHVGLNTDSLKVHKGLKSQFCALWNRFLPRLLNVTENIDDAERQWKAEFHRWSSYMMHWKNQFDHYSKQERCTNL
- Run Description: Inhibition of electric eel AChE at 0.5 mM using acetylthiocholine iodide as substrate preincubated for 10 mins followed by substrate addition measured after 30 mins by Ellman's method relative to control
The molecules listed here are annotated with their inhibition.
Assay Readout: inhibition

{"Molecule": "CN(C)CCCC1(c2ccc(F)cc2)OCc2cc(C(=O)NNC(=O)c3ccc([N+](=O)[O-])cc3)ccc21 (stereo not drawn)", "Assay Readout": "inhibition", "Value": "75.8%"}
{"Molecule": "CN(C)CCCC1(c2ccc(F)cc2)OCc2cc(C(=O)NNC(=O)c3ccc(F)cc3)ccc21 (stereo not drawn)", "Assay Readout": "inhibition", "Value": "86.6%"}
{"Molecule": "CN(C)CCCC1(c2ccc(F)cc2)OCc2cc(C(=O)NNC(=O)c3ccc(I)cc3)ccc21 (stereo not drawn)", "Assay Readout": "inhibition", "Value": "76.4%"}
{"Molecule": "Cc1ccccc1C(=O)NNC(=O)c1ccc2c(c1)COC2(CCCN(C)C)c1ccc(F)cc1 (stereo not drawn)", "Assay Readout": "inhibition", "Value": "83.4%"}
{"Molecule": "CN(C)CCCC1(c2ccc(F)cc2)OCc2cc(C(=O)NNC(=O)c3cccc([N+](=O)[O-])c3)ccc21 (stereo not drawn)", "Assay Readout": "inhibition", "Value": "79.3%"}
{"Molecule": "CN(C)CCCC1(c2ccc(F)cc2)OCc2cc(C(=O)NNC(=O)c3ccccc3Br)ccc21 (stereo not drawn)", "Assay Readout": "inhibition", "Value": "85.2%"}
{"Molecule": "CN(C)CCCC1(c2ccc(F)cc2)OCc2cc(C(=O)NNC(=O)c3ccc(O)cc3)ccc21 (stereo not drawn)", "Assay Readout": "inhibition", "Value": "84.6%"}
{"Molecule": "CN(C)CCCC1(c2ccc(F)cc2)OCc2cc(C(=O)NNC(=O)c3ccc(Cl)cc3)ccc21 (stereo not drawn)", "Assay Readout": "inhibition", "Value": "86.1%"}
{"Molecule": "CN(C)CCCC1(c2ccc(F)cc2)OCc2cc(C(=O)NNC(=O)c3ccccc3[N+](=O)[O-])ccc21 (stereo not drawn)", "Assay Readout": "inhibition", "Value": "70.3%"}
{"Molecule": "COc1ccc(C(=O)NNC(=O)c2ccc3c(c2)COC3(CCCN(C)C)c2ccc(F)cc2)cc1 (stereo not drawn)", "Assay Readout": "inhibition", "Value": "76.4%"}
{"Molecule": "CN(C)CCCC1(c2ccc(F)cc2)OCc2cc(C(=O)NNC(=O)c3ccccc3I)ccc21 (stereo not drawn)", "Assay Readout": "inhibition", "Value": "81.8%"}
{"Molecule": "CN(C)CCCC1(c2ccc(F)cc2)OCc2cc(C(=O)NNC(=O)c3ccccc3)ccc21 (stereo not drawn)", "Assay Readout": "inhibition", "Value": "69.8%"}
{"Molecule": "COc1cc(C(=O)NNC(=O)c2ccc3c(c2)COC3(CCCN(C)C)c2ccc(F)cc2)ccc1O (stereo not drawn)", "Assay Readout": "inhibition", "Value": "81.3%"}
{"Molecule": "CN(C)CCCC1(c2ccc(F)cc2)OCc2cc(C(=O)NNC(=O)c3ccccc3N)ccc21 (stereo not drawn)", "Assay Readout": "inhibition", "Value": "84.5%"}
{"Molecule": "CN(C)CCCC1(c2ccc(F)cc2)OCc2cc(C(=O)NNC(=O)c3cccc(Cl)c3)ccc21 (stereo not drawn)", "Assay Readout": "inhibition", "Value": "93.5%"}
{"Molecule": "CN(C)CCCC1(c2ccc(F)cc2)OCc2cc(C(=O)NNC(=O)c3cccc(Br)c3)ccc21 (stereo not drawn)", "Assay Readout": "inhibition", "Value": "80.1%"}
{"Molecule": "CN(C)CCCC1(c2ccc(F)cc2)OCc2cc(C(=O)NNC(=O)c3ccc(N)cc3)ccc21 (stereo not drawn)", "Assay Readout": "inhibition", "Value": "83.2%"}
{"Molecule": "CN(C)CCCC1(c2ccc(F)cc2)OCc2cc(C(=O)NNC(=O)c3cccc(F)c3)ccc21 (stereo not drawn)", "Assay Readout": "inhibition", "Value": "77.1%"}
